- measured_on: Histone acetyltransferase RTT109 (Saccharomyces cerevisiae (strain ATCC 204508 / S288c) (Baker's yeast)) (UniProt Q07794)
- Sequence (whole entry): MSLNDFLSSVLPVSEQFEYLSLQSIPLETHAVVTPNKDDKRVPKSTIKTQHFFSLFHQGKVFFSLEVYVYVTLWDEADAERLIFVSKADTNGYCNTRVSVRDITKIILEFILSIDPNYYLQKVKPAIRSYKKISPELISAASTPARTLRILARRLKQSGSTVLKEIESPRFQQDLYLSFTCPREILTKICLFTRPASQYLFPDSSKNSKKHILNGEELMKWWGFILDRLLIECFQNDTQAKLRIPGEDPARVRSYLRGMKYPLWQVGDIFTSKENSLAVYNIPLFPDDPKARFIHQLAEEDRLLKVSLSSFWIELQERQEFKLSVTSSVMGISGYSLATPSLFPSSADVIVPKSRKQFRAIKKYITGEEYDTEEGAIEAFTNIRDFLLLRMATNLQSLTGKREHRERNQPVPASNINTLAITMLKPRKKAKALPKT
- measurement_notes: Inhibition of Vps75-stimulated recombinant Saccharomyces cerevisiae histone acetyltransferase Rtt109 assessed as H3K27 acetylated product at […] after 45 mins by Slot bolt inhibiton assay
Activity calls are given as the source filed them. No rule for the calls is given here.
I would appreciate it if you answered using one of these outcomes: 1.0 = active, 0.0 = inactive

Worked set:
>>> label("[Br-].c1ccc(Nc2nc(-c3ccccc3)[n+](-c3ccccc3)s2)cc1")
1.0
>>> label("COc1ccc(Nc2nc(-c3ccc(C)cc3)[n+](Cc3ccccc3)s2)cc1.[Cl-]")
1.0
>>> label("O=S(=O)(C[n+]1sc(Nc2ccccc2)nc1-c1ccccc1)c1ccc2ccccc2c1.[Br-]")
0.0

Read the next record carefully.
Hey, what did the test say about O=S(=O)(C[n+]1sc(Nc2ccc(Cl)cc2Cl)nc1-c1ccccc1)c1ccccc1.[Cl-] ? 1.0

---

- measured_on: Histone acetyltransferase RTT109 (Saccharomyces cerevisiae (strain ATCC 204508 / S288c) (Baker's yeast))
- measurement_notes: Inhibition of Vps75-stimulated recombinant Saccharomyces cerevisiae histone acetyltransferase Rtt109 using Asf1-dH3-H4 as substrate assessed as coenzyme A production after 45 mins by CPM based HTS assay
- condition_description: read-out: IC50
measurement_kind: pIC50
Reminder that pIC50 means the negative base-10 logarithm of the concentration expressed in mol/L.

As a guide, the following entries are already answered.
>>> recorded_number("O=S(=O)(Nc1cc(Sc2nc[nH]n2)c(O)c2ccccc12)c1ccccc1")
5.85
>>> recorded_number("O=[N+]([O-])c1ccc(Sc2nnc(-c3ccccc3)o2)c2nonc12")
5.96

Please give the documented pIC50 of [Br-].c1ccc(C[n+]2sc(Nc3ccccc3)nc2-c2ccccc2)cc1 5.51

Please give the documented pIC50 of Cn1c(CN2CCOCC2)nnc1Sc1ccc([N+](=O)[O-])c2nonc12 5.74

Please give the documented pIC50 of O=[N+]([O-])c1c(Sc2nnnn2-c2ccccc2)cc(Cl)c2nonc12 5.64

Please give the documented pIC50 of O=S(=O)(Nc1cc(Cl)c(O)c2ccccc12)c1ccc(Br)cc1 5.60

Please give the documented pIC50 of O=[N+]([O-])c1ccc2nonc2c1Sc1nc2ccccc2[nH]1 5.47

---

- measured_on: Histone acetyltransferase RTT109 (Saccharomyces cerevisiae (strain ATCC 204508 / S288c) (Baker's yeast)) (UniProt Q07794)
- measurement_notes: Inhibition of Vps75-stimulated recombinant Saccharomyces cerevisiae histone acetyltransferase Rtt109 assessed as H3K27 acetylated product at […] after 45 mins by Slot bolt inhibiton assay
The source made the active and inactive calls. How the calls were made is not given here.
I would appreciate it if you answered using one of these outcomes: Y for active, N for inactive

Hey, what did the test say about Cc1nnc(SC2CC(=O)N(c3ccc(Br)cc3)C2=O)s1 (stereo not given) ? Y

Hey, what did the test say about CC(C)c1ccc(S(=O)(=O)Nc2ccc(O)c(Br)c2)cc1 ? N
